Target: recombinant EmaxOBP1 (Elephas maximus)
Sequence (Q8HZN2 entry or part of it): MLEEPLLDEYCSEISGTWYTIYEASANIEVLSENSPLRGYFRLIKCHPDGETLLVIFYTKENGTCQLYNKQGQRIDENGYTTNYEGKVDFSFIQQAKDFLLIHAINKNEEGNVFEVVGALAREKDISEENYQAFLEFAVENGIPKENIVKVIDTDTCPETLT
Assay: Titration of recombinant protein with fluorescent probe 1-NPN
Conditions: 2 μM protein in 50 mM Tris-HCl pH 7.4, room temperature
measure.name: Kd (nM)
One number for each entry, in nM.

// query Need Kd, item "c1ccc(Nc2cccc3ccccc23)cc1"
// result 460
